Biological target: T1, ZFP SBS#1047 (synthetic)
T1 chain: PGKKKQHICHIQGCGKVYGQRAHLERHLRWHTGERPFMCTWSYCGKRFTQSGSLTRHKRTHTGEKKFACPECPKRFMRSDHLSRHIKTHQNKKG
Assay: EMSA
Settings: tags: MBP fusion
Quantity Kind: Kd (nM)

binder="GGGGCAGGA (dsDNA) DNA 1: GGGGCAGGA DNA 2: TCCTGCCCC" value_units=nM recorded_result=24.7

Hey, just so you know, these numbers are from patent US20030068675.
